Target under test: Grb2 SH2 (UniProt P62993)
Sequence (P62993 whole entry, looked up, the tested form may be a part): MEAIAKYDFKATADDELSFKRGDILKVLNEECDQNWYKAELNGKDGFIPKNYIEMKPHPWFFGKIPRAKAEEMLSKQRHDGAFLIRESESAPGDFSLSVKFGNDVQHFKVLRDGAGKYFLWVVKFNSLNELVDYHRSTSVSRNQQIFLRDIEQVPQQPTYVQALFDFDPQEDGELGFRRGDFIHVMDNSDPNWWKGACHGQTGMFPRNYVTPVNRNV
Assay remarks: SH2 binding enrichment of the phosphorylated peptide, bacterial display (enrichment ratio); higher = better substrate or ligand; peptides without Tyr show the background;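 also: peptide library displayed on the E. coli surface as eCPX fusions, selected cells deep-sequenced, score is each peptide's frequency after selection divided by its frequency in the input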
Please respond with reported SH2 binding enrichment for every item in the list.
When you answer, write just the number.

Q) Request: SH2 binding enrichment, test system Grb2 SH2 (UniProt P62993), entry VRSVDYVLFRS [FAM189B_Y361]
A) 1.13

Q) Give SH2 binding enrichment (Grb2 SH2 (UniProt P62993)) of the following sequence: GGPTFYIDTNA [ACTL6A_Y69_YF]
A) 0.874

Q) Which SH2 binding enrichment is reported with Grb2 SH2 (UniProt P62993) for this entry: ETCLAYMEKRI [TEKT1_Y118_R119M] ?
A) 0.67

Q) # query: SH2 binding enrichment | item `IKETHYMVDRC` | system: Grb2 SH2 (UniProt P62993)
A) 0.78

Q) // lookup SH2 binding enrichment | system=Grb2 SH2 (UniProt P62993) | key= RFWPRYVKVGS [NOG_Y172]
A) 0.701

Q) So what SH2 binding enrichment did PLDNLYAEPAV [PRPS1_Y146_V142L] get with Grb2 SH2 (UniProt P62993)?
A) 0.995

Q) API: value(readout=SH2 binding enrichment, system=Grb2 SH2 (UniProt P62993)) for record GINDDHGQLKN [NBN_Y679_Y679H]
A) 0.817

Q) Observed SH2 binding enrichment on Grb2 SH2 (UniProt P62993) for DSKIRYLSADS [TTF1_Y476_E473K] , please.
A) 1.11

Q) Query for Grb2 SH2 (UniProt P62993): what SH2 binding enrichment does the record show for MFQVQYNSSVD [LRFN1_Y458_YF] ?
A) 0.776

Q) Quick check: SH2 binding enrichment on Grb2 SH2 (UniProt P62993), item LKFAIYFEVRE [LAMA2_Y1258_A1261V_YF] ?
A) 0.877

Q) Give the reported SH2 binding enrichment for LHSDHYSPSGR [TMPRSS12_Y23_Y19H] (system: Grb2 SH2 (UniProt P62993)).
A) 0.995

Q) Form field - read-out: SH2 binding enrichment; system: Grb2 SH2 (UniProt P62993); submitted item: QEGPEYWDQNT [HLA-A_Y83_E87N]
A) 0.834

Q) Look up SH2 binding enrichment with Grb2 SH2 (UniProt P62993) for this sequence: AGGTRYRFVSQ [UCN3_Y95_R91G_YF]
A) 0.849

Q) What is its SH2 binding enrichment for Grb2 SH2 (UniProt P62993)? Entry: AEYGLYGAMVW [VSX2_Y222_R227W]
A) 0.62

Q) Short answer please: SH2 binding enrichment, Grb2 SH2 (UniProt P62993), entry ISSLRYKLLEE [TRPC6_Y896_E897K]
A) 0.742

Q) Please state recorded SH2 binding enrichment (tested on Grb2 SH2 (UniProt P62993)) of IRTIDYRYTVS [IDS_Y497_W502S]
A) 0.73

Q) Find the measured SH2 binding enrichment: item CTLLPYYSAPV [DGKE_Y269_R273P] , target or system Grb2 SH2 (UniProt P62993).
A) 0.71

Q) Record lookup: for Grb2 SH2 (UniProt P62993), what SH2 binding enrichment belongs to PRARTYCFKQE [KLHDC9_Y175_S171R_YF] ?
A) 1.38

Q) Observed SH2 binding enrichment on Grb2 SH2 (UniProt P62993) for LIGRRYDDPEV [HSPA9_Y128] , please.
A) 0.674

Q) Give SH2 binding enrichment (Grb2 SH2 (UniProt P62993)) of the following sequence: RASQEYHIVKK [PDZD2_Y557_S552R]
A) 1.01

Q) Observed SH2 binding enrichment on Grb2 SH2 (UniProt P62993) for RGDVIYKGFED [NFU1_Y194_G189R] , please.
A) 0.797

Q) Give Grb2 SH2 (UniProt P62993) SH2 binding enrichment for MSRDIYSTDYY [NTRK1_Y676]
A) 1.07

Q) Request: SH2 binding enrichment, test system Grb2 SH2 (UniProt P62993), entry SFPHEYGSQEG [RBM10_Y48_R46H_YF]
A) 0.93

Q) Enter reported SH2 binding enrichment observed with Grb2 SH2 (UniProt P62993) for LITTLYISFLG [KCNQ1_Y267_G269S]
A) 0.872

Q) GET /values?readout=SH2 binding enrichment&system=Grb2 SH2 (UniProt P62993)&item= GISDEYHVIRH [GCDH_Y398]
A) 0.827

Q) I'm curious: which SH2 binding enrichment was measured for FLAVEYHKPHI [IDS_Y225_G224E] tested on Grb2 SH2 (UniProt P62993)?
A) 1.32

Q) Quick check: SH2 binding enrichment on Grb2 SH2 (UniProt P62993), item MGSFNYLGFAR [SPTLC2_Y178_YF] ?
A) 1.05

Q) Reported SH2 binding enrichment for Grb2 SH2 (UniProt P62993), given MANFMYKAGPS [MAML2_Y515_YF] ?
A) 1.03

Q) Kindly state the measured SH2 binding enrichment obtained for LPPGEYVVVPS [CAPN1_Y494] with Grb2 SH2 (UniProt P62993).
A) 1.06

Q) Under Grb2 SH2 (UniProt P62993): SH2 binding enrichment value of WQQQSYLFSGI [CTNNB1_Y30_D32Y_YF] ?
A) 1.02

Q) // fetch Grb2 SH2 (UniProt P62993) SH2 binding enrichment for GLRSFYETSKM [MAGED2_Y449_YF]
A) 0.933

Q) What is its SH2 binding enrichment for Grb2 SH2 (UniProt P62993)? Entry: NGSFRYVIISQ [LRP1B_Y1988]
A) 1.17

Q) API: value(readout= SH2 binding enrichment, system= Grb2 SH2 (UniProt P62993), query= KEEEDYREENN [BMS1_Y651_K652R] )
A) 0.754

Q) Item: MKGDYYRSLAE [YWHAG_Y131_Y133S] Test system: Grb2 SH2 (UniProt P62993) Read-out: SH2 binding enrichment Value: ?
A) 0.813

Q) What value of SH2 binding enrichment on Grb2 SH2 (UniProt P62993) does FISLIYTNFEA [GSTP1_Y109_YF] have?
A) 1.1

Q) State its SH2 binding enrichment on Grb2 SH2 (UniProt P62993): IVAEYYDNLPH [DEGS1_Y284_A280V]
A) 0.934

Q) Requested read-out SH2 binding enrichment, target or system Grb2 SH2 (UniProt P62993), entry SRASFYRKGGC [ALK_Y1283_Y1278S_YF]
A) 0.674

Q) Could you share what SH2 binding enrichment was measured for DNQFAYLKAII [HNF4A_Y288_E285Q_YF] , tested on Grb2 SH2 (UniProt P62993)?
A) 0.782

Q) Test system Grb2 SH2 (UniProt P62993); read-out SH2 binding enrichment; what value for HRGSLYLAIEF [TEK_Y899_Y897S_YF] ?
A) 0.956

Q) Quick check: SH2 binding enrichment on Grb2 SH2 (UniProt P62993), item VKMLEYLGKDV [CASP5_Y74] ?
A) 0.662

Q) I'm curious: which SH2 binding enrichment was measured for KGSEGYLAAIY [NF1_Y2503_T2507I] tested on Grb2 SH2 (UniProt P62993)?
A) 0.911

Q) Form: Entry = LARDMDDKEYY [MET_Y1230_Y1230D] | System = Grb2 SH2 (UniProt P62993) | SH2 binding enrichment = ____
A) 0.742

Q) SH2 binding enrichment of SGIFQYNIAKF [FOXL2_Y83_I84N_YF] on Grb2 SH2 (UniProt P62993)?
A) 1.21

Q) What SH2 binding enrichment appears in the records for this sequence with Grb2 SH2 (UniProt P62993)? PPGRSYSPCDF [TNS1_Y793_Y796C_YF]
A) 1.25

Q) Lab note: need SH2 binding enrichment with Grb2 SH2 (UniProt P62993) for entry GHEEFYSTHPH [LRRK2_Y1402_R1398H] , please look it up.
A) 0.771

Q) Given the entry AFEQQYSPIPK [NOX1_Y373_R378K] , what SH2 binding enrichment was observed with Grb2 SH2 (UniProt P62993)?
A) 0.856

Q) Hello, I am looking for reported SH2 binding enrichment with Grb2 SH2 (UniProt P62993) for GHEYIYVDRMQ [PDGFRB_Y581_P584R] . Could you help?
A) 0.878

Q) Item: QMWLKYSQSDL [SMC1A_Y714_R711W] Test system: Grb2 SH2 (UniProt P62993) Read-out: SH2 binding enrichment Value: ?
A) 1.02

Q) Could you share what SH2 binding enrichment was measured for TTANRYLKVSD [MYOM2_Y871] , tested on Grb2 SH2 (UniProt P62993)?
A) 1.2

Q) Lab note: need SH2 binding enrichment for RIPFRYPKEFQ [IDS_Y234_H229R] on Grb2 SH2 (UniProt P62993), anyone have it?
A) 0.447

Q) Form entry - test system: Grb2 SH2 (UniProt P62993); read-out: SH2 binding enrichment; sequence: ALAAPYVLYPS [CEFIP_Y1332_G1337S]
A) 1.03

Q) Missing value: SH2 binding enrichment, Grb2 SH2 (UniProt P62993), entry MTRDIYRASYY [ALK_Y1278_A1274T] . Fill in?
A) 0.876

Q) # value lookup — system Grb2 SH2 (UniProt P62993), readout SH2 binding enrichment, item PSELYYSKIGP [SMG1_Y2254]
A) 0.666

Q) What is its SH2 binding enrichment for Grb2 SH2 (UniProt P62993)? Entry: AKLNIYKRKVE [VWA3B_Y918]
A) 0.854
